# target-of-assay: PI3Kα (p110α/p85α) (Homo sapiens (Human), UniProt P42336)
# Sequence (P42336 whole entry): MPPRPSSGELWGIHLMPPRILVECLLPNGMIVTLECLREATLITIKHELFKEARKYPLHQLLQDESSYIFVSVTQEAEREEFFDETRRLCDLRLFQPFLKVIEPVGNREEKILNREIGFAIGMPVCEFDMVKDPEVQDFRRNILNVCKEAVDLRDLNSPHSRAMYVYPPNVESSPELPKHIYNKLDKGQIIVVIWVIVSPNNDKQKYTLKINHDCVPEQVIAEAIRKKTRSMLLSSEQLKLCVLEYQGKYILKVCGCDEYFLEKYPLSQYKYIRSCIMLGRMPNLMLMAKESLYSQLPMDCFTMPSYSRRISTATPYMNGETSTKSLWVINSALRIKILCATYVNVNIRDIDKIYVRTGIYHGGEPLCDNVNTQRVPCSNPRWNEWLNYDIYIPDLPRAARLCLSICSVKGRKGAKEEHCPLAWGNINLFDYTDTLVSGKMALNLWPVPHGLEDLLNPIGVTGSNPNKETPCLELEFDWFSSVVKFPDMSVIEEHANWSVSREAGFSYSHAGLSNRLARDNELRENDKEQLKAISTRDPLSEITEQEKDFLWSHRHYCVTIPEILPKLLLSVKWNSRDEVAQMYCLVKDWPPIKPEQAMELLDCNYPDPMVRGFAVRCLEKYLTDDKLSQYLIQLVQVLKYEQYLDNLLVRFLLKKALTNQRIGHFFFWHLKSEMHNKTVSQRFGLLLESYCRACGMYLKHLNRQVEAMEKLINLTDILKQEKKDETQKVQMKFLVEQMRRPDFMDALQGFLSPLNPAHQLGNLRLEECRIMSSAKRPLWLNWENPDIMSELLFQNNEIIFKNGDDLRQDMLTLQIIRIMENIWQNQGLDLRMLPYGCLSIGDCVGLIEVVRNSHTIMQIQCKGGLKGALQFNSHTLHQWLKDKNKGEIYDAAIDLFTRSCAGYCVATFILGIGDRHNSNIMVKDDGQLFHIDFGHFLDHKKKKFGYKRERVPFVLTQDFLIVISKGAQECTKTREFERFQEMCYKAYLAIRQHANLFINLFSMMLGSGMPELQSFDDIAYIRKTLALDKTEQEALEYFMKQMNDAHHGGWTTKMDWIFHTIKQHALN
# Sequence (P27986 whole entry partner): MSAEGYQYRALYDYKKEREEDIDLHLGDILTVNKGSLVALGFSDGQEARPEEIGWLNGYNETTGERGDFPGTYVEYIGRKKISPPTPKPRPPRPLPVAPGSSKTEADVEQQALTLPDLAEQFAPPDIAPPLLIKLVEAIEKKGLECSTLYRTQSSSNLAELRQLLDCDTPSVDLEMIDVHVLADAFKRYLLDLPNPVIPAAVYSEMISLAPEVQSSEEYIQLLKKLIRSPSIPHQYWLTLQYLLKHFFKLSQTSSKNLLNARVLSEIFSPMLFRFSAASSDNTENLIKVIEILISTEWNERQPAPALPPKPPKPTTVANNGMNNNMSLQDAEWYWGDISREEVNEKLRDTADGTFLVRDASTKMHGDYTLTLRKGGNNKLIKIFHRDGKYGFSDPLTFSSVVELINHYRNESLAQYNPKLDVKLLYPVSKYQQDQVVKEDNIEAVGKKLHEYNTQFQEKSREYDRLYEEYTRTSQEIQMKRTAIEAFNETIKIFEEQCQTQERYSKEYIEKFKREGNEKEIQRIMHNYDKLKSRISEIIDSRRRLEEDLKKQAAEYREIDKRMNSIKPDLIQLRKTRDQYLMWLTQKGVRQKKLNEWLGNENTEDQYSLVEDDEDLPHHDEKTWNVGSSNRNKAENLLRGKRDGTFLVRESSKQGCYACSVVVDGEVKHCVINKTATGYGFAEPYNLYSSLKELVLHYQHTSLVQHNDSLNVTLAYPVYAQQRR
# assay-text: PI3Kα enzymatic test by measuring the consumption of ATP
# Assay type: biochemical
Below, each entry is listed with its recorded PI3Ka IC50.
Please reply with the bare figure in µM and do not write the unit itself.

>>> observed_result("CN1CC(C)(C)Oc2nc(N3CC4CCC(C3)O4)nc(-c3ccc(NC(=O)Nc4ccncc4)c(F)c3)c2C1=O")
1.46

Enquiry: Tell me its PI3Ka IC50 on PI3Kα (p110α/p85α) (Homo sapiens (Human), UniProt P42336): "CNC(=O)Nc1ccc(-c2nc(N3C4CCC3COC4)nc3c2C(=O)N(C)CC(C)(C)O3)cc1F"
Return: 8.88

Enquiry: Answer briefly: PI3Ka IC50 recorded on PI3Kα (p110α/p85α) (Homo sapiens (Human), UniProt P42336) for "CCN1CC(C)(C)Oc2nc(N3CC4CCC(C3)O4)nc(-c3ccc(N)nc3)c2C1=O"
Return: 9.38

Enquiry: // output PI3Ka IC50; input "CCN1CC(C)(C)Oc2nc(N3CCOC[C@@H]3C)nc(-c3ccc(NC(=O)Nc4cc(OC)ccn4)c(F)c3)c2C1=O" ; system PI3Kα (p110α/p85α) (Homo sapiens (Human), UniProt P42336)
Return: 7.65

====

# target-of-assay: PI3Kα (p110α/p85α) (Homo sapiens (Human), UniProt P42336)
# assay-text: PI3Kα enzymatic test by measuring the consumption of ATP
# Format: biochemical
assay-metric: PI3Ka IC50

>>> observed_result("CCN1CC(C)(C)Oc2nc(N3CC4CCC(C3)O4)nc(-c3ccc(NC(=O)Nc4ccc(N(C)C)cn4)cc3)c2C1=O [Example 64]")
">10 µM"

Enquiry: Provide one value: measured PI3Ka IC50 of CCN1CC(C)(C)Oc2nc(N3CC4CCC(C3)O4)nc(-c3ccc(Nc4nnc(-c5ccc(OC)nc5)[nH]4)c(F)c3)c2C1=O [Example 183]
Return: >10 µM

Enquiry: // fetch PI3Ka IC50 given entry CCN1CC(C)(C)Oc2nc(N3C4CCC3COC4)nc(-c3ccc(NC(=O)Nc4ccncc4)c(F)c3)c2C1=O [Example 51]
Return: 1.9 µM

Enquiry: Determine from records and report PI3Ka IC50 for CCN1CC(C)(C)Oc2nc(N3CC4CCC(C3)O4)nc(-c3ccc(NC(=O)OC[C@H](C)O)c(F)c3)c2C1=O [Example 20]
Return: >10 µM

====

# target-of-assay: mTOR (human recombinant aa mTOR 1360-2549) (Homo sapiens (Human), UniProt P42345)
# Sequence (P42345 1360-2549): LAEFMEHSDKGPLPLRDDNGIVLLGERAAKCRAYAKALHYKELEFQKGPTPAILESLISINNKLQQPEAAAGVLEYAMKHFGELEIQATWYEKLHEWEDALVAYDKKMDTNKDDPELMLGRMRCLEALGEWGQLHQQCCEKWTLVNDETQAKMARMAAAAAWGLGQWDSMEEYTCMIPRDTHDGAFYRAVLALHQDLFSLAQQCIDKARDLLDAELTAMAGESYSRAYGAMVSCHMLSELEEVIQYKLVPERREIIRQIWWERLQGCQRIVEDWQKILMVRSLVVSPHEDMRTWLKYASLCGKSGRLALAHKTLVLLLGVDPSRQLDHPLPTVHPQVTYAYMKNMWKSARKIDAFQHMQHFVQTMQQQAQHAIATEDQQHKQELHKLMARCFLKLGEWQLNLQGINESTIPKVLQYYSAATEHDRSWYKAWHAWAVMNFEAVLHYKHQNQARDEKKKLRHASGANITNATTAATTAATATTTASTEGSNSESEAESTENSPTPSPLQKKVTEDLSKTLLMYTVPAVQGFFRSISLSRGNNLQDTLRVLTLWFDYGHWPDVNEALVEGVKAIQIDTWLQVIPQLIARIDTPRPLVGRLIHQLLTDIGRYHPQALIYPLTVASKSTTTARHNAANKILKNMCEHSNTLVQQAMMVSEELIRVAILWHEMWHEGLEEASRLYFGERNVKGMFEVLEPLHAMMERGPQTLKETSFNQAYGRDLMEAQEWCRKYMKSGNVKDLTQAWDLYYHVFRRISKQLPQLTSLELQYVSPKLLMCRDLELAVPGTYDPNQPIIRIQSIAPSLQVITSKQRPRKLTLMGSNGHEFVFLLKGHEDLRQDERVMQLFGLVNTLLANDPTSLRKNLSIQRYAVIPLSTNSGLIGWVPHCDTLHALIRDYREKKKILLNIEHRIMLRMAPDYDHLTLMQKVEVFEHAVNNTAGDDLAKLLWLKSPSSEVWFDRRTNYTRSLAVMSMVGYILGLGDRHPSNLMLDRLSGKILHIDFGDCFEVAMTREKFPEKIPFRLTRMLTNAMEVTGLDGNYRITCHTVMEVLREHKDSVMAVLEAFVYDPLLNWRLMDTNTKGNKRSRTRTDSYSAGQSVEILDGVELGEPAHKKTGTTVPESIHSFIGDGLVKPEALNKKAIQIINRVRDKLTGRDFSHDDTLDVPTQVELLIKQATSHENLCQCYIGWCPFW
# assay-text: mTOR enzymatic test by TR-FRET (phosphorylation of GFP-4EBP1)
assay-metric: pIC50
Units for pIC50: none; it is -log10 of a concentration expressed in mol/L.

>>> observed_result("CCN1CC(C)(C)Oc2nc(N3CC4CCC(C3)O4)nc(-c3ccc(NC(=O)N[C@H](C)CO)c(F)c3)c2C1=O [Example 27]")
6.40
>>> observed_result("CCN1CC(C)(C)Oc2nc(N3CC4CCC(C3)O4)nc(-c3ccc(NC(=O)NCCO)cc3)c2C1=O [Example 117]")
7.60
>>> observed_result("CCN1CC(C)(C)Oc2nc(N3CCOC[C@@H]3C)nc(-c3ccc(NC(=O)NC)cc3F)c2C1=O [Example 11]")
7.89

Enquiry: Tell me measured pIC50 for CCN1CC(C)(C)Oc2nc(N3CC4CCC(C3)O4)nc(-c3ccc(NC(=O)O[C@@H](C)CO)c(F)c3)c2C1=O [Example 61] please.
Return: 6.00

Enquiry: Read the entry COCCN1CC(C)(C)Oc2nc(N3CCOC[C@@H]3C)nc(-c3ccc(NC(=O)Nc4cnn(C)c4)cc3)c2C1=O [Example 201] and write its reported pIC50.
Return: 7.32

Enquiry: Could you please provide reported pIC50 for CCNC(=O)Nc1ccc(-c2nc(N3CC4CCC(C3)O4)nc3c2C(=O)N(C[C@@H]2CCCN2C(=O)OCC)CC(C)(C)O3)cc1F [Example 5] ? Thanks!
Return: 6.04

Enquiry: Give the reported value of pIC50 for this record: CCN1CC(C)(C)Oc2nc(N3CC4CCC(C3)O4)nc(-c3ccc(NC(=O)Nc4ccc(C)nc4)c(F)c3)c2C1=O [Example 185]
Return: 7.62

Enquiry: Give the value of pIC50 reported for the following: CCN1CC(C)(C)Oc2nc(N3C[C@@H]4C[C@H]3CO4)nc(-c3ccc(NC(=O)NC)c(F)c3)c2C1=O [Example 206]
Return: 6.84

Enquiry: Please report pIC50 for the following compound: Cn1ccc(NC(=O)Nc2ccc(-c3nc(N4CC5CCC(C4)O5)nc4c3C(=O)N(C3CCOCC3)CC(C)(C)O4)cc2)n1 [Example 16]
Return: 7.72

Enquiry: // Input: CCN1CC(C)(C)Oc2nc(N3C4CCC3COC4)nc(-c3ccc(NC(=O)Nc4ccc(N5C[C@@H]6C[C@H]5CO6)nc4)c(F)c3)c2C1=O [Example 253] . Output its pIC50 only.
Return: 7.14

Enquiry: Query pIC50 for CCN1CC(C)(C)Oc2nc(N3CCOC[C@@H]3C)nc(-c3ccc(NC(=O)Nc4ccc(OC)nc4)c(F)c3)c2C1=O [Example 141]
Return: 7.47

Enquiry: Look up and state reported pIC50 for CC1(C)CNC(=O)c2c(nc(N3CCOCC3)nc2-c2ccc(N)nc2)O1 [Example 95]
Return: 6.20

Enquiry: Give pIC50 for CNC(=O)Nc1ccc(-c2nc(N3CC4CCC(C3)O4)nc3c2C(=O)N(CCOC)CC(C)(C)O3)cc1F [Example 210]
Return: 7.39

Enquiry: Please indicate pIC50 recorded for CCN1CC(C)(C)Oc2nc(N3CCOC[C@@H]3C)nc(-c3ccc(NC(=O)Nc4ccc(C)cn4)cc3)c2C1=O [Example 169]
Return: 7.51

====

# target-of-assay: PI3Kα (p110α/p85α) (Homo sapiens (Human), UniProt P42336)
# assay-text: PI3Kα enzymatic test by measuring the consumption of ATP
# Type: biochemical
Entry flag: Criterion met if PI3Ka IC50 reaches 4 µM; Criterion not met if it does not.

Consider the following illustrative entries.
>>> label("CC[C@H]1COCCN1c1nc2c(c(-c3ccc(NC(=O)NC)c(F)c3)n1)C(=O)N(CC)CC(C)(C)O2")
"Criterion met"
>>> label("CCN1CC(C)(C)Oc2nc(N3CCOC[C@@H]3C)nc(-c3ccc(NC(=O)Nc4ccc(N5CCN(C)CC5)cn4)cc3)c2C1=O")
"Criterion not met"

Enquiry: In plain terms: is recorded PI3Ka IC50 at least 4 µM for "CCN1CC(C)(C)Oc2nc(N3CCOC[C@@H]3C)nc(-c3ccc(NC(=O)Nc4ccc(OC)cn4)c(F)c3)c2C1=O" ?
Return: Criterion not met

Enquiry: Determine whether this molecule has PI3Ka IC50 no lower than 4 µM: "CCNC(=O)Nc1ccc(-c2nc(N3CC4CCC(C3)O4)nc3c2C(=O)N(CCC(=O)N(C)C)CC(C)(C)O3)cc1"
Return: Criterion met

====

# target-of-assay: PI3Kα (p110α/p85α) (Homo sapiens (Human), UniProt P42336)
# assay-text: PI3Kα enzymatic test by measuring the consumption of ATP
# Format: biochemical
assay-metric: PI3Ka IC50

Look over these answered cases.
>>> observed_result("CCN1CC(C)(C)Oc2nc(N3CC4CCC(C3)O4)nc(-c3ccc(NC(=O)Nc4ccccn4)cc3F)c2C1=O [Example 84]")
">10 µM"
>>> observed_result("CCN1CC(C)(C)Oc2nc(N3CCOC[C@@H]3C)nc(-c3ccc(NC(=O)Nc4cc(OC)ccc4F)cc3)c2C1=O [Example 213]")
"0.991 µM"
>>> observed_result("CCN1CC(C)(C)Oc2nc(N3CCOC[C@@H]3C)nc(-c3ccc(NC(=O)Nc4ccc(N5CCN(C)CC5)nc4)cc3)c2C1=O [Example 174]")
"0.326 µM"
>>> observed_result("CCNC(=O)Nc1ccc(-c2nc(N3CC4CCC(C3)O4)nc3c2C(=O)N(CC)CC(C)(C)O3)cn1 [Example 17]")
">10 µM"
>>> observed_result("CCN1CC(C)(C)Oc2nc(N3CCOC[C@@H]3C)nc(-c3ccc(NC(=O)Nc4cc(C)nc(C)n4)cc3)c2C1=O [Example 91]")
"4.64 µM"

Enquiry: Find the measured PI3Ka IC50 of CCN1CC(C)(C)Oc2nc(N3CCOC[C@@H]3C)nc(-c3ccc(NC(=O)OCCO)c(F)c3)c2C1=O [Example 209] and report it.
Return: >10 µM

Enquiry: Look up and state reported PI3Ka IC50 for CCN1CC(C)(C)Oc2nc(N3CC4CCC(C3)O4)nc(-c3ccc(NC(=O)Nc4ccc(OC5CCOC5)cc4)c(F)c3)c2C1=O (centres unmarked) [Example 77]
Return: 4.49 µM

Enquiry: Please indicate PI3Ka IC50 recorded for CCNC(=O)Nc1ccc(-c2nc(N3CC4CCC(C3)O4)nc3c2C(=O)N(CC)CC(C)(C)O3)cc1F [Example 110]
Return: >10 µM

Recorded values, source patent US9120812B2.
